# credit: patent US20210246166A1

# experimental.target: recombinant human MASP2 active protease (amino acids 297-686, C-terminal His Tag) (human, UniProt O00187 297-686)
# Sequence (O00187 other isoform, or with tags, fused parts or gaps limits assumed): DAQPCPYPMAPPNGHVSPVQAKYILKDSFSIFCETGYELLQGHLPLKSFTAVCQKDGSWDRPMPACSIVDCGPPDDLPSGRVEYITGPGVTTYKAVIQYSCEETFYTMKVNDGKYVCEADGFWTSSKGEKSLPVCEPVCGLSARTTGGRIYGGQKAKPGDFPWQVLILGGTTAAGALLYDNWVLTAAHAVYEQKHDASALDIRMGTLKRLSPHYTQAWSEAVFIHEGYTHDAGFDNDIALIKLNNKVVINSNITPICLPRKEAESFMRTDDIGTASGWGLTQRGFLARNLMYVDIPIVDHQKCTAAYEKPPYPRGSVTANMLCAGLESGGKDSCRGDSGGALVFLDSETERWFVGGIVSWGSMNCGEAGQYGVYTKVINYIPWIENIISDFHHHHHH
# run.description: cell-based or functional assay
Numbered stars: 1 amine (or outer) side, 2 acyl side, 3 side chain; on linkers, the order of the positions; unused ones are H or OH. Bridge positions count the residues as written; N and C are the ends. Square brackets hold non-standard residues; d marks the D form. Ends that are not written are not given here. * marks the point of attachment. Ida = iminodiacetic acid, O=C(CN(CC(=O)[*:3])[*:1])[*:2]; Oic = O=C(O)[C@@H]1C[C@@H]2CCCC[C@@H]2N1; Butanoyl(3,3-Me2) = CC(C)(C)CC(=O)*; Cyclobutylacetic = O=C(CC1CCC1)*; tBuAla = CC(C)(C)C[C@H](N)C(=O)O; Pen = CC(C)(S)[C@H](N)C(=O)O; NMeC = CN[C@@H](CS)C(=O)O; Orn = NCCC[C@H](N)C(=O)O; Sar = CNCC(=O)O
measured.metric: human MASP2 IC50 (nM)
Answers are plain numbers, in nM.

| binder | human MASP2 IC50 / nM |
| --- | --- |
| Cyclobutylacetic-ICSRS[tBuAla]PPI[NMeC]I-NH2 (disulfide 2-10; SMILES CC[C@H](C)[C@H](NC(=O)[C@@H]1CSSC[C@H](NC(=O)[C@@H](NC(=O)CC2CCC2)[C@@H](C)CC)C(=O)N[C@@H](CO)C(=O)N[C@@H](CCCNC(=N)N)C(=O)N[C@@H](CO)C(=O)N[C@@H](CC(C)(C)C)C(=O)N2CCC[C@H]2C(=O)N2CCC[C@H]2C(=O)N[C@@H]([C@@H](C)CC)C(=O)N1C)C(N)=O) [Example 382: (Cyclobutylacetic)-IC+SRS-((tBu)A)-PPI-((N-Me)C)+I-NH2] | 41 |

For every record below, what is its human MASP2 IC50?
1. {Butanoyl(3,3-Me2)}-ICSRS[tBuAla]PPI[Pen]I-NH2 (disulfide 2-10; SMILES CC[C@H](C)[C@H](NC(=O)[C@H]1NC(=O)[C@H]([C@@H](C)CC)NC(=O)[C@@H]2CCCN2C(=O)[C@@H]2CCCN2C(=O)[C@H](CC(C)(C)C)NC(=O)[C@H](CO)NC(=O)[C@H](CCCNC(=N)N)NC(=O)[C@H](CO)NC(=O)[C@@H](NC(=O)[C@@H](NC(=O)CC(C)(C)C)[C@@H](C)CC)CSSC1(C)C)C(N)=O) [Example 396: (tert-Butylacetic acid)-IC+SRS-((tBu)A)-PPI-(Pen)+I-NH2]
2. [Sar][Orn][Orn][Orn]ICSRSLP[Oic]I[Pen]IP-NH2 (disulfide 6-14; N-terminus assumed; SMILES CC[C@H](C)[C@H](NC(=O)[C@H](CCCN)NC(=O)[C@H](CCCN)NC(=O)[C@H](CCCN)NC(=O)CNC)C(=O)N[C@H]1CSSC(C)(C)[C@@H](C(=O)N[C@H](C(=O)N2CCC[C@H]2C(N)=O)[C@@H](C)CC)NC(=O)[C@H]([C@@H](C)CC)NC(=O)[C@@H]2C[C@@H]3CCCC[C@@H]3N2C(=O)[C@@H]2CCCN2C(=O)[C@H](CC(C)C)NC(=O)[C@H](CO)NC(=O)[C@H](CCCNC(=N)N)NC(=O)[C@H](CO)NC1=O) [Example 405: ((N-Me)G)-(Orn)-(Orn)-(Orn)-IC+SRSLP-(Oic)-I-(Pen)+IP-NH2]
3. [Sar]ICSRSLP[Oic]I[Pen]IP[Ida]-OH (disulfide 3-11) [Example 446: ((N-Me)G)-IC+SRSLP-(Oic)-I-(Pen)+IP-(Ida)-OH]
4. [Sar]ICSRS[tBuAla]PPI[Pen]IPD[Sar][Sar][Sar]-NH2 (disulfide 3-11; N-terminus assumed; SMILES CC[C@H](C)[C@H](NC(=O)CNC)C(=O)N[C@H]1CSSC(C)(C)[C@@H](C(=O)N[C@H](C(=O)N2CCC[C@H]2C(=O)N[C@@H](CC(=O)O)C(=O)N(C)CC(=O)N(C)CC(=O)N(C)CC(N)=O)[C@@H](C)CC)NC(=O)[C@H]([C@@H](C)CC)NC(=O)[C@@H]2CCCN2C(=O)[C@@H]2CCCN2C(=O)[C@H](CC(C)(C)C)NC(=O)[C@H](CO)NC(=O)[C@H](CCCNC(=N)N)NC(=O)[C@H](CO)NC1=O) [Example 433: ((N-Me)G)-IC+SRS-((tBu)A)-PPI-(Pen)+IPD-((N-Me)G)-((N-Me)G)-((N-Me)G)-NH2]

Response:
28
980
72
120
